Molecular target: HLA-A*02:01
Test: IEDB peptide-MHC binding, purified MHC/direct/fluorescence; filed as Kd, often an IC50 or EC50 that approximates it; bounds were set here for any values at or beyond the usual limits of such assays
Details: source organism: Brucella suis
MEASURED METRIC: Kd (µM)
# value in µM; strip the unit string

Req: Suppose we examine the sequence `LTLKPCHAL` ; what Kd value has been reported?
Resp: 4.76

----------
Molecular target: HLA-B*18:01
Test: IEDB peptide-MHC binding, purified MHC/competitive/fluorescence; filed as Kd, often an IC50 or EC50 that approximates it; bounds were set here for any values at or beyond the usual limits of such assays
Conditions: source organism: Cryptosporidium parvum Iowa II
MEASURED METRIC: Kd

Req: Suppose we examine the sequence `RLKHIFLIF` ; what Kd value has been reported?
Resp: ≥ 20 µM
